B1: library; numbered along this chain (parent)
chain: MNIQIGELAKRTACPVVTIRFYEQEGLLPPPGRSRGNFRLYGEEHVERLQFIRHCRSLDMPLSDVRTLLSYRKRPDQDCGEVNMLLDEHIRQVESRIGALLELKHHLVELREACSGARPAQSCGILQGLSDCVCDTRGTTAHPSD

Variants of: B1
experimentalDetails: sfGFP reporter fluorescence (15 h) (µM FITC); higher = stronger transcriptional activation
experimentalConditions: library round: Round 0; ligand: 30 µM Zn
# binarize sfGFP reporter fluorescence: threshold 0.2 inclusive, high side rule met, low side rule not met

Worked examples follow.
* L62N | rule not met
* D64T | rule met
* G124A | rule met

Request: Threshold query (sfGFP reporter fluorescence >= 0.2) on `G128V`
Result: rule met

Request: Threshold query (sfGFP reporter fluorescence >= 0.2) on `E94K`
Result: rule met

Request: Threshold query (sfGFP reporter fluorescence >= 0.2) on `L62Y`
Result: rule not met

Request: Threshold query (sfGFP reporter fluorescence >= 0.2) on `L126I`
Result: rule met

Request: Threshold query (sfGFP reporter fluorescence >= 0.2) on `R111Y`
Result: rule met

Request: Threshold query (sfGFP reporter fluorescence >= 0.2) on `R111W`
Result: rule not met

Request: Threshold query (sfGFP reporter fluorescence >= 0.2) on `G128K`
Result: rule met

Request: Threshold query (sfGFP reporter fluorescence >= 0.2) on `D64W`
Result: rule met
